EXPERIMENTAL PROTOCOL: Aqueous solubility by lyophilization solubility assay
Type: physicochemical
RESULT TYPE: solubility

CO/C(C)=C1/NC(=O)[C@H]([C@@H](C)O)NC(=O)c2csc(n2)-c2cc(O)c(-c3nc(C(=O)NCCN(C)C)cs3)nc2-c2csc(n2)[C@@H]2COC(=O)c3c4c5c(cccc5n3O)COC(=O)[C@@H](O[C@H]3C[C@](C)(O)[C@H](N(C)C)[C@H](C)O3)[C@@H](OC4)[C@H](NC(=O)c3csc1n3)c1nc(cs1)C(=O)N2.O=C(O)C(F)(F)F = > 10000 µg/mL
CO/C(C)=C1/NC(=O)[C@H]([C@@H](C)O)NC(=O)c2csc(n2)-c2cc(O)c(-c3nc(C(=O)N4CCN(CC(=O)N(C)C)CC4)cs3)nc2-c2csc(n2)[C@@H]2COC(=O)c3c4c5c(cccc5n3O)COC(=O)[C@@H](O[C@H]3C[C@](C)(O)[C@H](N(C)C)[C@H](C)O3)[C@@H](OC4)[C@H](NC(=O)c3csc1n3)c1nc(cs1)C(=O)N2.O=C(O)C(F)(F)F = > 10000 µg/mL
CO/C(C)=C1/NC(=O)[C@H]([C@@H](C)O)NC(=O)c2csc(n2)-c2cc(O)c(-c3nc(C(=O)NCCNC(N)=O)cs3)nc2-c2csc(n2)[C@@H]2COC(=O)c3c4c5c(cccc5n3O)COC(=O)[C@@H](O[C@H]3C[C@](C)(O)[C@H](N(C)C)[C@H](C)O3)[C@@H](OC4)[C@H](NC(=O)c3csc1n3)c1nc(cs1)C(=O)N2.O=C(O)C(F)(F)F = < 10000 µg/mL
C=C(NC(=O)c1csc(-c2nc3c(cc2O)-c2nc(cs2)C(=O)N[C@@H]([C@@H](C)O)C(=O)N/C(=C(\C)OC)c2nc(cs2)C(=O)N[C@@H]2c4nc(cs4)C(=O)N[C@@H](COC(=O)c4c5c6c(cccc6n4O)COC(=O)[C@@H](O[C@H]4C[C@](C)(O)[C@H](N(C)C)[C@H](C)O4)[C@H]2OC5)c2nc-3cs2)n1)C(N)=O.O=C(O)C(F)(F)F = 340 µg/mL
CO/C(C)=C1/NC(=O)[C@H]([C@@H](C)O)NC(=O)c2csc(n2)-c2cc(O)c(-c3nc(C(=O)N4CCN(C)CC4)cs3)nc2-c2csc(n2)[C@@H]2COC(=O)c3c4c5c(cccc5n3O)COC(=O)[C@@H](O[C@H]3C[C@](C)(O)[C@H](N(C)C)[C@H](C)O3)[C@@H](OC4)[C@H](NC(=O)c3csc1n3)c1nc(cs1)C(=O)N2.O=C(O)C(F)(F)F = > 10000 µg/mL

q: Give the reported solubility for this compound. CO/C(C)=C1/NC(=O)[C@H]([C@@H](C)O)NC(=O)c2csc(n2)-c2cc(O)c(-c3nc(C(=O)NCCCN(C)C)cs3)nc2-c2csc(n2)[C@@H]2COC(=O)c3c4c5c(cccc5n3O)COC(=O)[C@@H](O[C@H]3C[C@](C)(O)[C@H](N(C)C)[C@H](C)O3)[C@@H](OC4)[C@H](NC(=O)c3csc1n3)c1nc(cs1)C(=O)N2.O=C(O)C(F)(F)F
a: > 10000 µg/mL

----------
Test system: Streptococcus pneumoniae
EXPERIMENTAL PROTOCOL: Antibacterial activity against Streptococcus pneumoniae CL2883 in liquid culture by turbidity method
Assay type: functional
RESULT TYPE: MIC (µg/mL)
Return type: number; implicit unit µg/mL.

Sample records with MIC:
CO/C(C)=C1/NC(=O)[C@H]([C@@H](C)O)NC(=O)c2csc(n2)-c2cc(O)c(-c3nc(C(=O)N4CCN(C)CC4)cs3)nc2-c2csc(n2)[C@@H]2COC(=O)c3c4c5c(cccc5n3O)COC(=O)[C@@H](O[C@H]3C[C@](C)(O)[C@H](N(C)C)[C@H](C)O3)[C@@H](OC4)[C@H](NC(=O)c3csc1n3)c1nc(cs1)C(=O)N2 = 0.015
CO/C(C)=C1/NC(=O)[C@H]([C@@H](C)O)NC(=O)c2csc(n2)-c2cc(O)c(-c3nc(C(=O)NCC(=O)N4CCN(C)CC4)cs3)nc2-c2csc(n2)[C@@H]2COC(=O)c3c4c5c(cccc5n3O)COC(=O)[C@@H](O[C@H]3C[C@](C)(O)[C@H](N(C)C)[C@H](C)O3)[C@@H](OC4)[C@H](NC(=O)c3csc1n3)c1nc(cs1)C(=O)N2 = 0.00048

The record that follows has no MIC shown yet.
q: Please look at CO/C(C)=C1/NC(=O)[C@H]([C@@H](C)O)NC(=O)c2csc(n2)-c2cc(O)c(-c3nc(C(=O)O)cs3)nc2-c2csc(n2)[C@@H]2COC(=O)c3c4c5c(cccc5n3O)COC(=O)[C@@H](O[C@H]3C[C@](C)(O)[C@H](N(C)C)[C@H](C)O3)[C@@H](OC4)[C@H](NC(=O)c3csc1n3)c1nc(cs1)C(=O)N2 and tell me its recorded MIC on Streptococcus pneumoniae.
a: 2
